- measured-target: full-length HAQ STING (Homo sapiens (Human), UniProt Q86WV6, G230A/H232R/R293Q/R71H)
- Sequence (Q86WV6 other isoform, or with tags, fused parts or gaps, stated change not applied): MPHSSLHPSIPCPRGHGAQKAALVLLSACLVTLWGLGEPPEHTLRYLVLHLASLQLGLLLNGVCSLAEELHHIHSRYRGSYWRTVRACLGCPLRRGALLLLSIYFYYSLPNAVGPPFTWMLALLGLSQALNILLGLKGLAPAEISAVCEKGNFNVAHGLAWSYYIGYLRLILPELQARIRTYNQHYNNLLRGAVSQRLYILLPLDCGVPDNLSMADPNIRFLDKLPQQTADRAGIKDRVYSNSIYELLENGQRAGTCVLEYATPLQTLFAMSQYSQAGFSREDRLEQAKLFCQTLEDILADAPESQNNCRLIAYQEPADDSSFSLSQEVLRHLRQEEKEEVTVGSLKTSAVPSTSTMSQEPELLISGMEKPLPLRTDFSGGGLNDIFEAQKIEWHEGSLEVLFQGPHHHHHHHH
- method-notes: 3H-cGAMP filtration binding assay (HAQ STING)
- condition-summary: competition with tritiated cGAMP, HAQ STING membrane; read-out: EC50 (nM), 3H-cGAMP filtration binding assay for HAQ STING
- From the text: The ability of compounds to bind STING is quantified by the ability to compete with tritiated cGAMP ligand for human STING receptor membrane using a radioactive filter-binding assay. […] The ability of compounds to bind STING is quantified by their ability to compete with tritiated cGAMP ligand for human STING receptor membrane using a radioactive filter-binding assay. […]
observed-property: EC50 (nM)

P: Nc1nc2c(ncn2[C@@H]2O[C@@H]3COP(=O)(S)O[C@H]4[C@H](F)[C@H](n5cnc6c(=O)[nH]cnc65)O[C@@H]4COP(=O)(S)O[C@@H]2C3)c(=O)[nH]1 (single isomer, unassigned) [Example 318]
Q: Nc1nc2c(ncn2[C@@H]2O[C@@H]3COP(=O)(S)OC4[C@@H](COP(=O)(S)O[C@H]2C3)O[C@@H](n2cnc3c(N)ncnc32)[C@H]4F)c(=O)[nH]1 (single isomer, unassigned)
R: C[C@H]1OP(=O)(O)O[C@@H]2C[C@@H](COP(=O)(O)O[C@H]3[C@@H](O)[C@H](n4cnc5c(N)ncnc54)O[C@@H]31)O[C@H]2n1cnc2c(=O)[nH]c(N)nc21
S: Nc1nc2c(ncn2[C@@H]2O[C@@H]3COP(=O)(O)OC4C(O)[C@H](c5cnn6c(=O)[nH]cnc56)O[C@@H]4COP(=O)(O)OC2C3O)c(=O)[nH]1 (stereo in doubt)
T: Nc1nc2c(ncn2[C@@H]2O[C@@H]3COP(=O)(O)O[C@H]4[C@@H](O)[C@H](n5cnc6c(N)ncnc65)O[C@@H]4COP(=O)(O)O[C@@H]2[C@@H]3N)c(=O)[nH]1
Order these by EC50, descending, and give the full ranking. Order the labels as requested and give them as your answer.
S, Q, R, P, T
(S: 112 nM, Q: 25.9 nM, R: 12.4 nM, P: 6.2 nM, T: 2.6 nM)
